- Tested on: P-glycoprotein (human MDR1)
- assay-procedure: MDCKII-MDR1 permeability assay
- Format: in vitro ADME, canine cells with over-expressed human MDR1 gene
- cond: dog, MDCK-MDR1; <2 no efflux, >2 active efflux
quantity-name: efflux ratio at 60 min, 10 µM
Could you respond with only the numeric value?

Example entries begin here.
>  <compound>
OCC(c1ccc(C(F)(F)F)cc1)n1cc(Cn2cnc3c(Cl)ncnc32)nn1 (stereo not drawn) [Compound 40a]

>  <efflux ratio at 60 min, 10 µM>
29.5

$$$$
>  <compound>
OC(Cn1cc(Cn2cnc3c(Cl)nccc32)nn1)c1ccc(Br)cc1 (stereo not drawn) [Compound 49b]

>  <efflux ratio at 60 min, 10 µM>
23.3

$$$$
>  <compound>
O[C@H](Cn1cc(Cn2cnc3c(Cl)ncnc32)nn1)c1ccc(C(F)(F)F)cc1 [Compound (S)-40b]

>  <efflux ratio at 60 min, 10 µM>
19.5

$$$$
>  <compound>
OCC(c1ccc(Br)cc1)n1cc(Cn2cnc3c(Cl)ncnc32)nn1 (stereo not drawn) [Compound 39a]

>  <efflux ratio at 60 min, 10 µM>
68.1

$$$$
>  <compound>
OC(Cn1cc(Cn2ccc3c(Cl)ncnc32)nn1)c1ccc(C(F)(F)F)cc1 (stereo not drawn) [Compound 45b]

>  <efflux ratio at 60 min, 10 µM>
3.4

$$$$

What does the record list as efflux ratio at 60 min, 10 µM for OC(Cn1cc(Cn2ccc3ccccc32)nn1)c1ccc(Br)cc1 (stereo not drawn) [Compound 29b] ?
1.7
